Target: HDAC3 (Homo sapiens)
Construct: purchased Enzo Life Sciences
Assay: HDAC Inhibition Screening Assay (FLUOR DE LYS Fluorimetric Drug Discovery Kit), HDAC3
Format: biochemical
Conditions: 10 μM compound
observed-property: inhibition at 10 µM

{"compound": "Cc1[nH]c2ccccc2c1CCNC1CCc2cc(/C=C/C(=O)Nc3ccc(F)cc3N)ccc21 (stereo not shown)", "test-result": "> 80%"}
{"compound": "Nc1cc(F)ccc1NC(=O)c1ccc(COc2ccc3c(c2)CCC(Cc2cc(C(F)(F)F)cc(C(F)(F)F)c2)C3=O)cc1 (stereo not shown)", "test-result": "< 50%"}
{"compound": "Nc1cc(F)ccc1NC(=O)/C=C/c1ccc2c(c1)CCCC2NC(=O)c1cc(C(F)(F)F)cc(C(F)(F)F)c1 (stereo not shown)", "test-result": "< 50%"}
{"compound": "COc1ccc2c(c1)CCCC2NC(=O)CCCCCCC(=O)Nc1ccc(F)cc1N (stereo not shown)", "test-result": "50 to 80%"}

----------
Target: HDAC3 (Homo sapiens, UniProt O15379)
Construct: purchased Enzo Life Sciences
Sequence (O15379 whole entry): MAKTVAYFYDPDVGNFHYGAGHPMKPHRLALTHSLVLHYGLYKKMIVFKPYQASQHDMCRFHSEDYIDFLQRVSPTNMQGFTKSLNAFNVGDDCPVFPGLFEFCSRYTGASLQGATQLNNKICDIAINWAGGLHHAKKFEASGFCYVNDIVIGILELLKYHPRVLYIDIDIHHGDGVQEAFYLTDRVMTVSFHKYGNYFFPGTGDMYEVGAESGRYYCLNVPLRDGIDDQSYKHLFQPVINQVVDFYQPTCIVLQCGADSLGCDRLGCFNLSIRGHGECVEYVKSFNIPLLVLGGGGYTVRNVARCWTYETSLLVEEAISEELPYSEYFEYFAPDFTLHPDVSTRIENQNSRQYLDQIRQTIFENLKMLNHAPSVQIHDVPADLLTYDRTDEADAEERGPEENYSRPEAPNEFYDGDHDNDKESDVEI
Sequence (O75376 395-489 partner limits assumed): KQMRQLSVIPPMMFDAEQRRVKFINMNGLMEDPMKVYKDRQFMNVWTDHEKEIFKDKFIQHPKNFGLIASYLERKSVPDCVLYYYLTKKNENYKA
Assay: HDAC Inhibition Screening Assay (FLUOR DE LYS Fluorimetric Drug Discovery Kit), HDAC3
Type: biochemical
Conditions: 50 μM compound
observed-property: inhibition at 50 µM

{"compound": "CCN(CC)c1ccc(C(=O)NC2CCc3cc(/C=C/C(=O)NO)ccc32)cc1 (centres unmarked) [Compound 28]", "observed-property": "inhibition at 50 µM", "test-result": "> 80%"}
{"compound": "O=C(/C=C/c1ccc2c(c1)CCC2NC(=O)c1cc(C(F)(F)F)cc(C(F)(F)F)c1)NO (centres unmarked) [Compound 22]", "observed-property": "inhibition at 50 µM", "test-result": "> 80%"}
{"compound": "O=C(CCCCCCC(=O)Nc1ccc2c(c1)CCCC2=O)NO [Compound 1]", "observed-property": "inhibition at 50 µM", "test-result": "> 80%"}
{"compound": "O=C(NO)c1ccc(COc2ccc3c(c2)CCC(Cc2cc(C(F)(F)F)cc(C(F)(F)F)c2)C3=O)cc1 (centres unmarked) [Compound 68]", "observed-property": "inhibition at 50 µM", "test-result": "< 50%"}
{"compound": "COc1ccc(CCNC2CCc3cc(/C=C/C(=O)Nc4ccc(F)cc4N)ccc32)cc1 (centres unmarked) [Compound 51]", "observed-property": "inhibition at 50 µM", "test-result": "> 80%"}
{"compound": "O=C(/C=C/c1ccc2c(c1)CCC2OCc1cc(C(F)(F)F)cc(C(F)(F)F)c1)NO (centres unmarked) [Compound 34]", "observed-property": "inhibition at 50 µM", "test-result": "> 80%"}
{"compound": "Cc1[nH]c2ccccc2c1CCNC1CCCc2cc(/C=C/C(=O)Nc3ccc(F)cc3N)ccc21 (centres unmarked) [Compound 62]", "observed-property": "inhibition at 50 µM", "test-result": "> 80%"}
{"compound": "O=C(/C=C/c1ccc2c(c1)CC/C(=C\\c1cc(C(F)(F)F)cc(C(F)(F)F)c1)C2=O)NO [Compound 7]", "observed-property": "inhibition at 50 µM", "test-result": "50 to 80%"}

----------
Molecular target: HDAC3 (Homo sapiens, UniProt O15379)
Construct: purchased Enzo Life Sciences
Assay: HDAC Inhibition Screening Assay (FLUOR DE LYS Fluorimetric Drug Discovery Kit), HDAC3
Assay type: biochemical
Conditions: 10 μM compound
observed-property: inhibition at 10 µM

{"compound": "O=C(CCCCC(=O)Nc1ccc2c(c1)CC/C(=C\\c1cc(C(F)(F)F)cc(C(F)(F)F)c1)C2=O)NO", "observed-property": "inhibition at 10 µM", "test-result": "< 50%"}
{"compound": "O=C(/C=C/c1ccc2c(c1)CCC2NC(=O)CCCCCCC(=O)NO)Nc1cc(Cl)cc(Cl)c1 (centres unmarked)", "observed-property": "inhibition at 10 µM", "test-result": "> 80%"}
{"compound": "COc1ccc2c(c1)CCCC2NC(=O)CCCCCCC(=O)NO (centres unmarked)", "observed-property": "inhibition at 10 µM", "test-result": "> 80%"}
{"compound": "O=C(/C=C/c1ccc2c(c1)CCC2OCc1cc(C(F)(F)F)cc(C(F)(F)F)c1)NO (centres unmarked)", "observed-property": "inhibition at 10 µM", "test-result": "50 to 80%"}
{"compound": "CCN(CC)c1ccc(C(=O)NC2CCc3cc(/C=C/C(=O)NCCCCCC(=O)Nc4ccc(F)cc4N)ccc32)cc1 (centres unmarked)", "observed-property": "inhibition at 10 µM", "test-result": "< 50%"}
{"compound": "O=C(CCCCCCC(=O)Nc1ccc2c(c1)CCCC2=O)NO", "observed-property": "inhibition at 10 µM", "test-result": "> 80%"}
{"compound": "O=C(/C=C/c1ccc2c(c1)CC/C(=C\\c1cc(C(F)(F)F)cc(C(F)(F)F)c1)C2=O)NCCCCCC(=O)NO", "observed-property": "inhibition at 10 µM", "test-result": "> 80%"}
{"compound": "Nc1cc(F)ccc1NC(=O)CCCCC(=O)N1CCN(C(=O)c2ccc3c(c2)CC/C(=C\\c2cc(C(F)(F)F)cc(C(F)(F)F)c2)C3=O)CC1", "observed-property": "inhibition at 10 µM", "test-result": "< 50%"}
